Reference for the values: patent US11623931B2

- target: aSyn aggregates on PD sections (Homo sapiens)
- Construct: 20 μm frozen sections from amygdala were purchased from an external provider (Tissue Solutions Ltd.); tissue Tissue Solutions Ltd; host or cells: human PD amygdala, frozen sections, Braak stage V-VI
- run.description: Assay 1 (fluorescence based assay): direct staining of human Parkinson's disease brain sections
- Format: binding
- Set-up: key: − (No); +/− (very weak); + (weak); ++ (good); +++ (strong)
- protocol.conditions: staining intensity; compound 100 μM, frozen amygdala sections, PD Braak stage V-VI
measurement.type: Staining of aSyn aggregates on PD sections

- F[C@H]1CCCN(c2ccc(-c3nc4nc(-c5cncs5)ccc4s3)cn2)C1: +
- CNc1ccc(-c2ccc3cc(-c4ccc(F)nc4)sc3n2)cn1: ++
- c1cncc(-c2cc3ccc(Nc4ccc(N5CCOCC5)cc4)nc3s2)c1: +
